target: human cloned 5-HT6 receptors (Homo sapiens, UniProt P50406)
Sequence (P50406 whole entry): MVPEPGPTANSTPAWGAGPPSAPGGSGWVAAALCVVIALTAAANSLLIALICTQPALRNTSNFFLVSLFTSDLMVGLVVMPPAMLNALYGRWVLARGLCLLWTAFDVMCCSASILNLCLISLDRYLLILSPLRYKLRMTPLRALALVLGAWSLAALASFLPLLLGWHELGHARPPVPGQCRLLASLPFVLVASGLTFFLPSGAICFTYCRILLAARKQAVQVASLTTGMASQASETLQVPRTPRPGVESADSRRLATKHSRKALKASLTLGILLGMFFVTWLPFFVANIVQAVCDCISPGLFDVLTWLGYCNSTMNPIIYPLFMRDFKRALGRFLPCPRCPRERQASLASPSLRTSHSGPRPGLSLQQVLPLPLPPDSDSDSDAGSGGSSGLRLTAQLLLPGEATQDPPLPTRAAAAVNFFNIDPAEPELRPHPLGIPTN
pKi: −log10 of the molar value. Counter-ions that a name gives are not always drawn.
measured_endpoint: pKi

[[record]]
molecule = "CN(C)CCn1ccc2ccc3c(=O)n(Cc4ccccc4)ccc3c21 [Example 6, hydrochloride]"
measured_endpoint = "pKi"
observed_result = 6.41


(a) NCCn1ccc2c3ccn(Cc4ccc(F)cc4)c(=O)c3ccc21
(b) NCCn1ccc2ccc3c(=O)n(Cc4ccccc4)ccc3c21 [Example 7, hydrochloride]
# input Hey, between a and b which has a smaller measured pKi? Respond using the label that marks the chosen record.
# output a
